Reference for the values: patent US5210290A

protocol summary: LD50, mouse
settings: in vivo
assay readout: LD50

For O=C(O)CN(CC(=O)O)C(=O)CS(=O)(=O)Nc1ccc(F)cc1C(F)(F)F , what is its reported LD50? ≤ 7500 µmol/kg

For O=C(O)CCNC(=O)CCS(=O)(=O)Nc1ccc(F)cc1C(F)(F)F , what is its reported LD50? 4000 µmol/kg
